Rm values for the compounds below.
Experiment: Relative lipophilicity of the compound
Format: physicochemical
Conditions: reversed-phase TLC, acetone/water 2:1

# annotated cases, reported Rm shown
CNC(=O)N1N=C(c2ccc(N)cc2)c2cc3c(cc2CC1=O)OCO3 ... -0.459
CNC(=O)N1N=C(c2cccc(N)c2)c2cc3c(cc2CC1=O)OCO3 ... -0.441
CCCCNC(=O)N1N=C(c2cccc(N)c2)c2cc3c(cc2CC1=O)OCO3 ... -0.075

Please look at the following compound next.
Q) Need Rm of SC1=NN=C(c2ccccc2)c2cc3c(cc2C1)OCO3 , thanks.
A) -0.185

* * *

Species: Mus musculus
Experiment: The compound was tested for Anticonvulsant activity against AMPA induced seizures in DBA/2 mice clonic phase.
Assay type: functional
outcome-measure: ED50

Nc1ccc(C2=NN=C(S)Cc3cc4c(cc32)OCO4)cc1 ... 15.6 µmol/kg
Nc1cccc(C2=NNC(=O)Cc3cc4c(cc32)OCO4)c1 ... 29.2 µmol/kg

Q) ED50 lookup needed for Nc1ccc(C2=NNC(=O)Cc3cc4c(cc32)OCO4)cc1 , thanks.
A) 37.9 µmol/kg

Q) Value lookup for ED50; key = Nc1cccc(C2=NN=C(S)Cc3cc4c(cc32)OCO4)c1
A) 32.8 µmol/kg

Q) Item CNC(=O)N1N=C(c2ccc(N)cc2)c2cc3c(cc2CC1=O)OCO3 has what recorded ED50?
A) 18.6 µmol/kg
